Entry source: ChEMBL document CHEMBL1132174

- Tested on: Human immunodeficiency virus 1
- METHOD NOTES: Anti-HIV activity in H9 lymphocytes.
- Type: functional, organism-based
- COND: Human immunodeficiency virus 1
IC50 for assorted compounds

[
  {
    "COMPOUND": "Cc1cc(=O)oc2c3c(ccc12)OC(C)(C)[C@H](O)[C@@H]3OC(=O)C12CC3CC(CC(C3)C1)C2",
    "IC50": "43.2 µM"
  },
  {
    "COMPOUND": "COc1cc2ccc(=O)oc2c2c1OC(C)(C)[C@H](OC(=O)C13CCC(C)(C(=O)O1)C3(C)C)[C@@H]2OC(=O)C12CCC(C)(C(=O)O1)C2(C)C (some centres undefined)",
    "IC50": "> 153 µM"
  },
  {
    "COMPOUND": "COc1cc2ccc3c(c2oc1=O)[C@@H](OC(=O)C12CCC(C)(C(=O)O1)C2(C)C)[C@@H](OC(=O)C12CCC(C)(C(=O)O1)C2(C)C)C(C)(C)O3 (some centres undefined)",
    "IC50": "> 153 µM"
  },
  {
    "COMPOUND": "Cc1cc(=O)oc2c3c(ccc12)OC(C)(C)[C@H](OC(=O)c1cccc(Br)c1)[C@@H]3OC(=O)c1cccc(Br)c1",
    "IC50": "> 91.6 µM"
  }
]

###

- System: Human immunodeficiency virus 1
- METHOD NOTES: Anti-HIV activity in H9 lymphocytes.
- Format: functional, organism-based
IC50 for assorted compounds

[
  {
    "COMPOUND": "Cc1cc(=O)oc2c3c(ccc12)OC(C)(C)[C@H](OC(=O)C12CCC(C)(C(=O)O1)C2(C)C)[C@@H]3OC(=O)C12CCC(C)(C(=O)O1)C2(C)C (stereo in doubt; 19)",
    "MEASURED ON": "Human immunodeficiency virus 1",
    "UNIT TEXT": "µM",
    "MODIFIER": ">",
    "IC50": 157
  },
  {
    "COMPOUND": "Cc1cc(=O)oc2c3c(ccc12)OC(C)(C)[C@H](OS(=O)(=O)CC12CCC(CC1=O)C2(C)C)[C@@H]3O (stereo in doubt; 22)",
    "MEASURED ON": "Human immunodeficiency virus 1",
    "UNIT TEXT": "µM",
    "MODIFIER": "=",
    "IC50": 42
  }
]

###

- System: Human immunodeficiency virus 1
- METHOD NOTES: Anti-HIV activity in H9 lymphocytes.
- Assay type: functional, organism-based
- COND: Human immunodeficiency virus 1
IC50 for assorted molecules

[
  {
    "MOLECULE": "Cc1cc(=O)oc2c3c(ccc12)OC(C)(C)[C@H](OS(=O)(=O)CC12CCC(CC1=O)C2(C)C)[C@@H]3O (stereo in doubt; 23)",
    "MEASURED ON": "Human immunodeficiency virus 1",
    "IC50": "45 µM"
  },
  {
    "MOLECULE": "CC(=O)O[C@@H]1[C@H](OC(=O)C23CCC(C)(C(=O)O2)C3(C)C)c2c(ccc3c(C)cc(=O)oc23)OC1(C)C (stereo partly specified)",
    "MEASURED ON": "Human immunodeficiency virus 1",
    "IC50": "123 µM"
  },
  {
    "MOLECULE": "COc1cc2c(c3oc(=O)ccc13)[C@@H](OC(=O)C13CCC(C)(C(=O)O1)C3(C)C)[C@@H](OC(=O)C13CCC(C)(C(=O)O1)C3(C)C)C(C)(C)O2 (stereo partly specified)",
    "MEASURED ON": "Human immunodeficiency virus 1",
    "IC50": "> 153 µM"
  },
  {
    "MOLECULE": "Cc1cc(=O)oc2c3c(ccc12)OC(C)(C)[C@H](OC(=O)C12CCC(C)(C(=O)O1)C2(C)C)[C@@H]3OC(=O)C12CCC(C)(C(=O)O1)C2(C)C (stereo in doubt; 8)",
    "MEASURED ON": "Human immunodeficiency virus 1",
    "IC50": "> 126 µM"
  },
  {
    "MOLECULE": "CCCc1cc(=O)oc2c3c(ccc12)OC(C)(C)[C@H](OC(=O)C12CCC(C)(C(=O)O1)C2(C)C)[C@@H]3OC(=O)C12CCC(C)(C(=O)O1)C2(C)C (stereo partly specified)",
    "MEASURED ON": "Human immunodeficiency virus 1",
    "IC50": "> 151 µM"
  },
  {
    "MOLECULE": "Cc1cc(=O)oc2c3c(ccc12)OC(C)(C)[C@H](O)[C@@H]3OC(=O)C12CCC(C)(C(=O)O1)C2(C)C (stereo partly specified)",
    "MEASURED ON": "Human immunodeficiency virus 1",
    "IC50": "> 219 µM"
  }
]
